Hey, just so you know, these numbers are from ChEMBL document CHEMBL5303573.

# assay name: The drug is tested on Bacteroides fragilis strain: HMW615 for biotransformation. The drug concentrations were measured before and after a 12-h incubation by liquid-chromatography-coupled mass spectrometry (LC–MS)
# protocol conditions: 2 µM
assay endpoint: Bacterial Biotransformation

Reported Bacterial Biotransformation of "CC(C)c1nc(N(C)S(C)(=O)=O)nc(-c2ccc(F)cc2)c1/C=C/[C@@H](O)C[C@@H](O)CC(=O)[O-].CC(C)c1nc(N(C)S(C)(=O)=O)nc(-c2ccc(F)cc2)c1/C=C/[C@@H](O)C[C@@H](O)CC(=O)[O-].[Ca+2]" : Compound NOT metabolized

Reported Bacterial Biotransformation of COc1ccc2[nH]c([S+]([O-])Cc3ncc(C)c(OC)c3C)nc2c1 (configuration not stated) : Compound metabolized

Reported Bacterial Biotransformation of "Cc1cn([C@H]2C[C@H](N=[N+]=[N-])[C@@H](CO)O2)c(=O)[nH]c1=O" : Compound NOT metabolized

Reported Bacterial Biotransformation of C#C[C@]1(OC(C)=O)CC[C@H]2[C@@H]3CCC4=CC(=O)CC[C@@H]4[C@H]3CC[C@@]21C [NORETHINDRONE ACETATE] : Compound metabolized

Reported Bacterial Biotransformation of O=C(NC(Cc1cc(=O)[nH]c2ccccc12)C(=O)O)c1ccc(Cl)cc1 (configuration not stated) [REBAMIPIDE] : Compound metabolized

More entries:
Reported Bacterial Biotransformation of "O=C(O)CCc1nc(-c2ccccc2)c(-c2ccccc2)o1" : Compound metabolized

Reported Bacterial Biotransformation of CN(C)C(=O)Oc1cc(OC(=O)N(C)C)cc(C(O)CNC(C)(C)C)c1 (configuration not stated) : Compound NOT metabolized

* * *

# assay name: The drug is tested on Anaerotruncus colihominis strain: DSM17241 for biotransformation. The drug concentrations were measured before and after a 12-h incubation by liquid-chromatography-coupled mass spectrometry (LC–MS)
# protocol conditions: 2 µM
assay endpoint: Bacterial Biotransformation

Answered examples (5):
Reported Bacterial Biotransformation of "CCOC(=O)[C@H](CCc1ccccc1)N[C@@H](C)C(=O)N1[C@H](C(=O)O)C[C@@H]2CCC[C@@H]21" : Compound NOT metabolized

Reported Bacterial Biotransformation of CCOC(=O)[C@H](CCc1ccccc1)N[C@@H](C)C(=O)N1CCC[C@H]1C(=O)O.O=C(O)/C=C\C(=O)O [ENALAPRIL MALEATE] : Compound NOT metabolized

Reported Bacterial Biotransformation of "CN1CCc2c(c3ccccc3n2Cc2ccccc2)C1.CN1CCc2c(c3ccccc3n2Cc2ccccc2)C1.O=S(=O)(O)c1cccc2c(S(=O)(=O)O)cccc12" : Compound NOT metabolized

Reported Bacterial Biotransformation of Clc1cccc(Cl)c1N=C1NCCN1 [CLONIDINE] : Compound NOT metabolized

Reported Bacterial Biotransformation of CCOC(=O)[C@H](CCc1ccccc1)N[C@H]1CCc2ccccc2N(CC(=O)O)C1=O [BENAZEPRIL] : Compound NOT metabolized

More entries:
Reported Bacterial Biotransformation of CC(C)NCC(O)COc1ccc(CCOCC2CC2)cc1 (configuration not stated) [BETAXOLOL] : Compound NOT metabolized

Reported Bacterial Biotransformation of CC(=O)OCC(=O)NCCCOc1cccc(CN2CCCCC2)c1 [ROXATIDINE ACETATE] : Compound metabolized

Reported Bacterial Biotransformation of CC(C)(C)NC[C@H](O)COc1ccccc1C1CCCC1.CC(C)(C)NC[C@H](O)COc1ccccc1C1CCCC1.O=S(=O)(O)O [PENBUTOLOL SULFATE] : Compound NOT metabolized

* * *

# assay name: The drug is tested on Ruminococcus torques strain: ATCC27756 for biotransformation. The drug concentrations were measured before and after a 12-h incubation by liquid-chromatography-coupled mass spectrometry (LC–MS)
# Type: ADME
# Design: dose 2 uM, timepoint 0 vs 12 hours
# protocol conditions: 2 µM
Non-standard residues stand in square brackets, D forms with d. Residues, ends and D or L forms follow the SMILES beside them. pGlu = O=C1CC[C@@H](C(=O)O)N1; Thz = O=C(O)[C@@H]1CSCN1
assay endpoint: Bacterial Biotransformation

Answered examples (10):
Reported Bacterial Biotransformation of "CCS(=O)(=O)CCn1c([N+](=O)[O-])cnc1C" : Compound metabolized

Reported Bacterial Biotransformation of "CCc1nc(N)nc(N)c1-c1ccc(Cl)cc1" : Compound NOT metabolized

Reported Bacterial Biotransformation of COc1ccccc1OCC(O)CN1CCN(CC(=O)Nc2c(C)cccc2C)CC1 (stereo not drawn) : Compound NOT metabolized

Reported Bacterial Biotransformation of "COC(=O)Nc1nc2ccc(C(=O)c3ccccc3)cc2[nH]1" : Compound NOT metabolized

Reported Bacterial Biotransformation of C#C[C@]1(OC(C)=O)CC[C@H]2[C@@H]3CCC4=C/C(=N/O)CC[C@@H]4[C@H]3CC[C@@]21CC [NORGESTIMATE] : Compound NOT metabolized

Reported Bacterial Biotransformation of "CN1CCN(C2=Nc3cc(Cl)ccc3Nc3ccccc32)CC1" : Compound NOT metabolized

Reported Bacterial Biotransformation of COc1ccnc(C[S+]([O-])c2nc3ccc(OC(F)F)cc3[nH]2)c1OC (stereo not drawn) : Compound metabolized

Reported Bacterial Biotransformation of CC(CN1c2ccccc2Sc2ccccc21)N(C)C (stereo not drawn) : Compound NOT metabolized

Reported Bacterial Biotransformation of O=C1CC[C@@H](C(=O)N2CSC[C@H]2C(=O)O)N1 [PIDOTIMOD] ([pGlu]-[Thz]-OH) : Compound NOT metabolized

Reported Bacterial Biotransformation of Br.CN1CCC[C@@H]1Cc1c[nH]c2ccc(CCS(=O)(=O)c3ccccc3)cc12 [ELETRIPTAN HYDROBROMIDE] : Compound NOT metabolized

More entries:
Reported Bacterial Biotransformation of "c1ccc([C@H]2CN3CCSC3=N2)cc1" : Compound NOT metabolized

Reported Bacterial Biotransformation of "CCOc1ccc(NC(C)=O)cc1" : Compound NOT metabolized

* * *

# assay name: The drug is tested on Clostridium scindens strain: ATCC35704 for biotransformation. The drug concentrations were measured before and after a 12-h incubation by liquid-chromatography-coupled mass spectrometry (LC–MS)
# protocol conditions: 2 µM
assay endpoint: Bacterial Biotransformation

Answered examples (5):
Reported Bacterial Biotransformation of "O=C([O-])C[C@H](O)C[C@H](O)/C=C/c1c(C2CC2)nc2ccccc2c1-c1ccc(F)cc1.O=C([O-])C[C@H](O)C[C@H](O)/C=C/c1c(C2CC2)nc2ccccc2c1-c1ccc(F)cc1.[Ca+2]" : Compound NOT metabolized

Reported Bacterial Biotransformation of "COC1=C(OC)C(=O)C(CCCCCCCCCCO)=C(C)C1=O" : Compound metabolized

Reported Bacterial Biotransformation of CCC1(c2ccc(N)cc2)CCC(=O)NC1=O (stereo unspecified) [AMINOGLUTETHIMIDE] : Compound NOT metabolized

Reported Bacterial Biotransformation of CC(C)NCC(O)COc1ccc(CC(N)=O)cc1 (stereo unspecified) : Compound NOT metabolized

Reported Bacterial Biotransformation of CC(C)(C)NCC(O)c1cc(Cl)c(N)c(Cl)c1 (stereo unspecified) : Compound NOT metabolized

More entries:
Reported Bacterial Biotransformation of "C#C[C@]1(O)CC[C@H]2[C@@H]3CCC4=CC(=O)CC[C@@H]4[C@H]3CC[C@@]21CC" : Compound NOT metabolized

Reported Bacterial Biotransformation of "CN1CCN(CC/C=C2/c3ccccc3Sc3ccc(S(=O)(=O)N(C)C)cc32)CC1" : Compound metabolized

Reported Bacterial Biotransformation of CCN(CC)CCOC(=O)C(Cc1cccc2ccccc12)CC1CCCO1.O=C(O)C(=O)O (stereo unspecified) [NAFRONYL OXALATE] : Compound NOT metabolized

* * *

# protocol conditions: enterocloster bolteae, 12 h, 2 µM
# Description: The drug is tested on Clostridium bolteae strain: ATCCBAA-613 for biotransformation. The drug concentrations were measured before and after a 12-h incubation by liquid-chromatography-coupled mass spectrometry (LC–MS)
assay endpoint: Bacterial Biotransformation

Answered examples (8):
Reported Bacterial Biotransformation of CCN(CC)C(=O)C1(c2ccccc2)CC1CN (configuration not stated) : Compound NOT metabolized

Reported Bacterial Biotransformation of Cc1cc(C)cc(OCC2CNC(=O)O2)c1 (configuration not stated) : Compound NOT metabolized

Reported Bacterial Biotransformation of CN(C)C(=O)Oc1cc(OC(=O)N(C)C)cc(C(O)CNC(C)(C)C)c1 (configuration not stated) : Compound NOT metabolized

Reported Bacterial Biotransformation of "CC#CCn1c(N2CCC[C@@H](N)C2)nc2c1c(=O)n(Cc1nc(C)c3ccccc3n1)c(=O)n2C" : Compound NOT metabolized

Reported Bacterial Biotransformation of "CCCCC1=NC2(CCCC2)C(=O)N1Cc1ccc(-c2ccccc2-c2nnn[nH]2)cc1" : Compound metabolized

Reported Bacterial Biotransformation of "Nc1c2c(nc3ccccc13)CCCC2" : Compound NOT metabolized

Reported Bacterial Biotransformation of "COc1ccc2c3c1O[C@H]1C[C@@H](O)C=C[C@@]31CCN(C)C2" : Compound NOT metabolized

Reported Bacterial Biotransformation of CC(O)(CS(=O)(=O)c1ccc(F)cc1)C(=O)Nc1ccc(C#N)c(C(F)(F)F)c1 (configuration not stated) [BICALUTAMIDE] : Compound NOT metabolized

More entries:
Reported Bacterial Biotransformation of CC(C)[C@H]1CC[C@H](C(=O)N[C@H](Cc2ccccc2)C(=O)O)CC1 [NATEGLINIDE] : Compound NOT metabolized

Reported Bacterial Biotransformation of "C=CC[C@@H]1/C=C(\C)C[C@H](C)C[C@H](OC)[C@H]2O[C@@](O)(C(=O)C(=O)N3CCCC[C@H]3C(=O)O[C@H](/C(C)=C/[C@@H]3CC[C@@H](O)[C@H](OC)C3)[C@H](C)[C@@H](O)CC1=O)[C@H](C)C[C@@H]2OC.O" : Compound metabolized

Reported Bacterial Biotransformation of "CCCN(CCC)CCc1cccc2c1CC(=O)N2" : Compound NOT metabolized

Reported Bacterial Biotransformation of "Cc1nc2n(c(=O)c1CCN1CCC(c3noc4cc(F)ccc34)CC1)CCCC2" : Compound NOT metabolized

Reported Bacterial Biotransformation of "CN1CCN(CC/C=C2/c3ccccc3Sc3ccc(S(=O)(=O)N(C)C)cc32)CC1" : Compound metabolized

Reported Bacterial Biotransformation of CC(=O)OCC(=O)[C@@]1(O)[C@@H](C)C[C@H]2[C@@H]3CCC4=CC(=O)C=C[C@]4(C)[C@@]3(F)[C@@H](O)C[C@@]21C [BETAMETHASONE ACETATE] : Compound NOT metabolized

Reported Bacterial Biotransformation of CSc1ccc2c(c1)C(N1CCN(C)CC1)Cc1ccccc1S2.O=C(O)/C=C\C(=O)O (configuration not stated) : Compound NOT metabolized

Reported Bacterial Biotransformation of CNCCC(Oc1ccc(C(F)(F)F)cc1)c1ccccc1 (configuration not stated) : Compound metabolized

Reported Bacterial Biotransformation of "N[C@@H](Cc1ccc(N(CCCl)CCCl)cc1)C(=O)O" : Compound metabolized

Reported Bacterial Biotransformation of COc1ccccc1OCCNCC(O)COc1cccc2[nH]c3ccccc3c12 (configuration not stated) : Compound NOT metabolized

Reported Bacterial Biotransformation of O=C(NCc1ccccc1)OCCO [BURAMATE] : Compound NOT metabolized

Reported Bacterial Biotransformation of "OCCN1CCN(CCCN2c3ccccc3Sc3ccc(C(F)(F)F)cc32)CC1" : Compound NOT metabolized

Reported Bacterial Biotransformation of CN(C)CC(c1ccc(O)cc1)C1(O)CCCCC1.O=C(O)CCC(=O)O (configuration not stated) [DESVENLAFAXINE SUCCINATE] : Compound NOT metabolized

Reported Bacterial Biotransformation of CC(C)N(CCC(C(N)=O)(c1ccccc1)c1ccccn1)C(C)C.O=P(O)(O)O (configuration not stated) [DISOPYRAMIDE PHOSPHATE] : Compound NOT metabolized

Reported Bacterial Biotransformation of "CCCCc1nc(Cl)c(CO)n1Cc1ccc(-c2ccccc2-c2nn[nH]n2)cc1" : Compound NOT metabolized

Reported Bacterial Biotransformation of "O=C([O-])C[C@H](O)C[C@H](O)/C=C/c1c(C2CC2)nc2ccccc2c1-c1ccc(F)cc1.O=C([O-])C[C@H](O)C[C@H](O)/C=C/c1c(C2CC2)nc2ccccc2c1-c1ccc(F)cc1.[Ca+2]" : Compound NOT metabolized
